Biological target: Type-2 angiotensin II receptor (Rattus norvegicus, UniProt P35351)
Sequence (P35351 whole entry): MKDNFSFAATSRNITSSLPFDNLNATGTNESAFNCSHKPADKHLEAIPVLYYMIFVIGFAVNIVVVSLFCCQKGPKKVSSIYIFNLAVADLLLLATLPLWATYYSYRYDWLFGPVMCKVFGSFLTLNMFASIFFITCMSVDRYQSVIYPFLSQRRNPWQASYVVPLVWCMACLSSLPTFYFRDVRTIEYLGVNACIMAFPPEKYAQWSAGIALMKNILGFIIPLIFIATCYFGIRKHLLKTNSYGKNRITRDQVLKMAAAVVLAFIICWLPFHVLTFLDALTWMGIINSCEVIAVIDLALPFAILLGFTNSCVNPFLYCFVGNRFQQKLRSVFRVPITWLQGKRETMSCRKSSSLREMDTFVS
Experiment: […] inhibitory concentration against AT2 receptor of rat adrenal membrane
Provide the recorded pIC50 for the entries that follow.
Please express pIC50 as -log10 of the molar concentration.

(Q) Bench note: what pIC50 did `CCc1nc2ccc(NC(=O)N3CCOCC3)cc2c(=O)n1Cc1ccc(-c2ccccc2S(=O)(=O)NC(=O)OCCC(C)C)cc1F` show?
(A) 9.02

(Q) Bench note: what pIC50 did `CCCCc1nc2ccc(NC(=O)N(C)C(C)C)cc2c(=O)n1Cc1ccc(-c2ccccc2S(=O)(=O)NC(=O)OCCC2CC2)cc1F` show?
(A) 9.44

(Q) Bench note: what pIC50 did `CCc1nc2ccc(NC(=O)N(C)C(C)C)cc2c(=O)n1Cc1ccc(-c2ccccc2S(=O)(=O)NC(=O)COCC(C)C)cc1F` show?
(A) 9.21

(Q) Bench note: what pIC50 did `CCCCOC(=O)NS(=O)(=O)c1ccccc1-c1ccc(Cn2c(CC)nc3ccc(NC(=O)N4CCOCC4)cc3c2=O)c(F)c1` show?
(A) 8.60

(Q) Bench note: what pIC50 did `CCc1nc2ccc(NC(=O)N(C)C(C)C)cc2c(=O)n1Cc1ccc(-c2ccccc2S(=O)(=O)NC(=O)OCCC2CC2)cc1F` show?
(A) 9.11

(Q) Bench note: what pIC50 did `CCNC(=O)Nc1ccc2nc(CC)n(Cc3ccc(-c4ccccc4S(=O)(=O)NC(=O)OCCC4CC4)cc3F)c(=O)c2c1` show?
(A) 9.10

(Q) Bench note: what pIC50 did `CCCc1nc2ccc(NC(=O)NC(C)C)cc2c(=O)n1Cc1ccc(-c2ccccc2S(=O)(=O)NC(=O)c2ccc(CC)cc2F)cc1F` show?
(A) 9.68

(Q) Bench note: what pIC50 did `CCc1ccc(C(=O)NS(=O)(=O)c2ccccc2-c2ccc(Cn3c(CC)nc4ccc(NC(=O)NC(C)C)cc4c3=O)c(F)c2)c(F)c1` show?
(A) 9.47

(Q) Bench note: what pIC50 did `CCc1nc2ccc(NC(=O)NC(C)C)cc2c(=O)n1Cc1ccc(-c2ccccc2S(=O)(=O)NC(=O)OCCC2CC2)cc1F` show?
(A) 9.10

(Q) Bench note: what pIC50 did `Cc1nc2ccc(NC(=O)NC(C)C)cc2c(=O)n1Cc1ccc(-c2ccccc2S(=O)(=O)NC(=O)OCCC(C)C)cc1F` show?
(A) 9.20
